Entry source: patent US12331022B2

# subject of test: human α7 nAChR (Homo sapiens, UniProt P36544)
# Construct: host or cells: HEK
# Sequence (P36544 23-502): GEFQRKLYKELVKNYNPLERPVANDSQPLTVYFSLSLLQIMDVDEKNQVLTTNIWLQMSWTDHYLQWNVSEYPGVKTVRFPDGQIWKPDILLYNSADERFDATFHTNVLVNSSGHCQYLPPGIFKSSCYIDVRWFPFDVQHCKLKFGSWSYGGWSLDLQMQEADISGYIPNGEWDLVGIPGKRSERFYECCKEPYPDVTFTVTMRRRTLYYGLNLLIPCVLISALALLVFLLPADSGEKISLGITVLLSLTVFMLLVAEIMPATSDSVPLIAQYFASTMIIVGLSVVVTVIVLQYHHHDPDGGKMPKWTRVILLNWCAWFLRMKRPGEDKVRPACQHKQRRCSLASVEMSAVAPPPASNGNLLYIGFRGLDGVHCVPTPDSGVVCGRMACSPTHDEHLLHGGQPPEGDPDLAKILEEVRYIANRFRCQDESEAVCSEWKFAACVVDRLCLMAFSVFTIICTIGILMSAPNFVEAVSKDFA
# measurement protocol: Automated patch-clamp electrophysiology functional assay (Assay A)
# Assay type: cell-based
# setup conditions: HEK cell line stably expressing human RIC-3 and human α7; IonFlux HT whole-cell population patch; with or without 40 μM acetylcholine; read-out: α7 nAChR Potency
pEC50: −log10 of the molar value.
parameter: pEC50

Given item `NS(=O)(=O)N1CCC2(CC1)C[C@H]2COc1cccc(-c2ccccc2)n1` , the value recorded as its pEC50 is ≥ 7.00

Given item `COc1cc(OC[C@@H]2CC23CCN(S(N)(=O)=O)CC3)ccc1F` , the value recorded as its pEC50 is 5.30 to 6.30

Given item NS(=O)(=O)N1CCC2(CC1)C(COc1ccnc(OC(F)F)c1)C2(F)F (single isomer, unassigned) [Example 2] , the value recorded as its pEC50 is ≥ 7.00

Given item NS(=O)(=O)N1CCC2(CC1)CC2CSc1ccc(C(F)(F)F)cc1 (racemic) , the value recorded as its pEC50 is 5.30 to 6.30

Given item Cn1nc(C(F)(F)F)cc1OCC1C(F)(F)C12CCN(S(N)(=O)=O)CC2 (single isomer, unassigned) [Example A12] , the value recorded as its pEC50 is 5.30 to 6.30

Given item NS(=O)(=O)N1CCC2(CC1)C(CCc1ccc(F)cc1C(F)(F)F)C2(F)F (stereo not shown) , the value recorded as its pEC50 is 4.30 to 5.30

Given item NS(=O)(=O)N1CCC2(CC1)C(COc1cc(F)ccc1C(F)(F)F)C2(F)F (single isomer, unassigned) , the value recorded as its pEC50 is ≥ 7.00

* * *

# subject of test: human α7 nAChR (Homo sapiens, UniProt P36544)
# Construct: host or cells: HEK
# measurement protocol: Automated patch-clamp electrophysiology functional assay (Assay A)
# Format: cell-based
# setup conditions: HEK cell line stably expressing human RIC-3 and human α7; IonFlux HT whole-cell population patch; with or without 40 μM acetylcholine; read-out: α7 nAChR Potency
pEC50: −log10 of the molar value.
parameter: pEC50

Recorded pEC50 for Cc1cc(C)n(-c2cccc(OC[C@H]3CC34CCN(S(N)(=O)=O)CC4)n2)n1 [Example A20] on human α7 nAChR (Homo sapiens, UniProt P36544) was 5.30 to 6.30

Recorded pEC50 for COc1ccc(Cl)cc1NC[C@@H]1C(F)(F)C12CCN(S(N)(=O)=O)CC2 [Example A59] on human α7 nAChR (Homo sapiens, UniProt P36544) was ≥ 7.00

Recorded pEC50 for NS(=O)(=O)N1CCC2(CC1)C[C@H]2COc1cccc(-c2ccncc2)n1 [Example A58] on human α7 nAChR (Homo sapiens, UniProt P36544) was 5.30 to 6.30

Recorded pEC50 for NS(=O)(=O)N1CCC2(CC1)C(/C=C/c1ccc(F)cc1C(F)(F)F)C2(F)F (stereo not drawn) [Example 19] on human α7 nAChR (Homo sapiens, UniProt P36544) was 5.30 to 6.30

Recorded pEC50 for NS(=O)(=O)N1CCC2(CC1)CC2COc1ccnc(OC(F)F)c1 (stereo not drawn) [Example 1] on human α7 nAChR (Homo sapiens, UniProt P36544) was 5.30 to 6.30

Recorded pEC50 for Cc1ccc(C)c(NC[C@@H]2C(F)(F)C23CCN(S(N)(=O)=O)CC3)c1 [Example A60] on human α7 nAChR (Homo sapiens, UniProt P36544) was ≥ 7.00

* * *

# subject of test: human α7 nAChR (Homo sapiens)
# Construct: host or cells: HEK
# measurement protocol: Automated patch-clamp electrophysiology functional assay (Assay A)
# Format: cell-based
# setup conditions: HEK cell line stably expressing human RIC-3 and human α7; IonFlux HT whole-cell population patch; with or without 40 μM acetylcholine; read-out: α7 nAChR Potency
parameter: EC50

Given item NS(=O)(=O)N1CCC2(CC1)C(COc1ccnc(OC(F)F)c1)C2(F)F (single isomer, unassigned) [Example 3] , the value recorded as its EC50 is 500 to 5000 nM

Given item NS(=O)(=O)N1CCC2(CC1)C(CSc1ccc(F)cc1C(F)(F)F)C2(F)F (centres unmarked) [Example 17] , the value recorded as its EC50 is 500 to 5000 nM

Given item COc1ccc(F)c(OCC2CC23CCN(S(N)(=O)=O)CC3)c1 (racemic) [Example A26] , the value recorded as its EC50 is 500 to 5000 nM

Given item NS(=O)(=O)N1CCC2(CC1)CC2COc1cccc(OC(F)F)c1 (racemic) [Example A23] , the value recorded as its EC50 is 100 to 500 nM

Given item NS(=O)(=O)N1CCC2(CC1)C(COc1ccnc(OCC(F)(F)F)c1)C2(F)F (single isomer, unassigned) [Example A33] , the value recorded as its EC50 is ≤ 100 nM

* * *

# subject of test: human α7 nAChR (Homo sapiens)
# Construct: host or cells: HEK
# measurement protocol: Automated patch-clamp electrophysiology functional assay (Assay A)
# Format: cell-based
# setup conditions: HEK cell line stably expressing human RIC-3 and human α7; IonFlux HT whole-cell population patch; with or without 40 μM acetylcholine; read-out: α7 nAChR Potency
# Protocol: The α7 nAChR positive allosteric modulator (PAM) activity of the present compounds may be tested using assays known in the art. […] The compounds were assessed for their ability to modulate the function of the human α7 nAChR stably expressed in a HEK cell line both in the presence, and in the absence of the natural α7 agonist acetylcholine. By performing a series of such measurements at different concentrations, the effective concentration of the α7 nAChR PAMs (EC50) was determined. […]
parameter: EC50

Recorded EC50 for `CCOc1cccc(OC[C@@H]2CC23CCN(S(N)(=O)=O)CC3)n1` on human α7 nAChR (Homo sapiens) was 0.1 to 0.5 µM

Recorded EC50 for `COc1cccc(OC[C@@H]2CC23CCN(S(N)(=O)=O)CC3)n1` on human α7 nAChR (Homo sapiens) was 0.5 to 5 µM

Recorded EC50 for COc1ccc(Cl)cc1OCC1C(F)(F)C12CCN(S(N)(=O)=O)CC2 (single isomer, unassigned) [Example A2] on human α7 nAChR (Homo sapiens) was ≤ 0.1 µM
